- MEASUREMENT PROTOCOL: Human pharmacokinetic study, single ascending oral doses
- Format: in vivo
- TEST CONDITIONS: male, human, plasma, oral, 4 mg, fasted, mean; read-out: Tmax
- Experimental: Twenty-four healthy, young male subjects were assigned to 1 of 3 sequential treatment panels (A, B, and C). […] Plasma samples were analyzed for Form II concentrations using reversed phase high performance liquid chromatography with tandem mass spectrometric detection (Merck Research Laboratories). […]
ASSAY READOUT: Tmax (min)
// units = min; emit number, no label

Documented Tmax of Cc1ccc(COC(=O)N2CC[C@H](CNc3ncccn3)[C@H](F)C2)cc1 [Form II] : 40.2

* * *

- MEASUREMENT PROTOCOL: Repeated once-daily oral dosing with food (Days 1-7) in healthy subjects, PK and PD
- Assay type: in vivo, human
- TEST CONDITIONS: both sexes, human, plasma, oral, 12 mg, young subjects, 12 mg, Day 1; read-out: Vz/F, Mean (SD)
ASSAY READOUT: Vd/F (L)
// units = L; emit number, no label

Documented Vd/F of Cc1ccc(COC(=O)N2CC[C@H](CNc3ncccn3)[C@H](F)C2)cc1 [Form II] : 197
